TESTED SYSTEM: JAK3 JH1 catalytic (human)
ASSAY EXPLANATION: KINOMEscan competition binding
CONDITION LABEL: compound 10.0 µM
Under this convention, TRUE denotes kinase still bound, per cent of control strictly below 30% and FALSE denotes kinase still bound, per cent of control at or above 30%.

Example results:
SMILES STR	ANSWER LABEL
CN1CCN(c2ccc(C(=O)Nc3ncc4c(n3)N(C)c3ccccc3C(=O)N4C)cc2)CC1	FALSE
COc1cc(N2CCN(C)CC2)ccc1Nc1ncc2c(n1)N(C)c1sccc1C(=O)N2C	FALSE
CS(=O)(=O)Nc1ccc(-c2cc(/C=C3\SC(=N)NC3=O)c[nH]c2=O)cc1	TRUE
COc1cc(N2CCN(C)CC2)ccc1Nc1ncc2c(n1)Nc1ccccc1NC2=O	FALSE
N=C1NC(=O)/C(=C/c2ccc(-c3ccc(C(N)=O)cc3O)o2)S1	FALSE
CN1C(=O)c2ccccc2N(C)c2nc(NS(=O)(=O)c3ccc(N)cc3)ncc21	FALSE
CN1C(=O)[C@H]2CCC[C@H]2N(C2CCCC2)c2nc(Nc3ccc(C(N)=O)cc3)ncc21	FALSE
COc1cc(N2CCN(C)CC2)ccc1Nc1ncc2c(n1)N(C)c1ccccc1N(C)C2=O	FALSE
COc1cc(N2CCC(O)CC2)ccc1Nc1ncc2c(n1)N1CCc3cccc(c31)C(=O)N2C	FALSE
N=C1NC(=O)/C(=C/c2ccc(-c3ccccc3O)o2)S1	TRUE

Please check: kinase still bound, per cent of control for `CN1C(=O)c2ccccc2N(C)c2nc(Nc3ccc(N4CCC(O)CC4)cc3)ncc21` , strictly under 30% or not?
FALSE

Cool, now `O=C1NC(=O)/C(=C/c2c[nH]c(=O)c(-c3ccc(N4CCNCC4)nc3)c2)S1`
TRUE

Cool, now `Nc1cccc(-c2cc(/C=C3\SC(=O)NC3=O)c[nH]c2=O)c1`
TRUE

Cool, now `O=C1NC(=S)S/C1=C\c1ccc(-c2cncc3ccccc23)o1`
TRUE

Cool, now `N=C1NC(=O)/C(=C/c2ccc(-c3ccc(F)cc3O)o2)S1`
TRUE

---

TESTED SYSTEM: UniProt:Q9UQB9
Sequence (Q9UQB9 whole entry, looked up): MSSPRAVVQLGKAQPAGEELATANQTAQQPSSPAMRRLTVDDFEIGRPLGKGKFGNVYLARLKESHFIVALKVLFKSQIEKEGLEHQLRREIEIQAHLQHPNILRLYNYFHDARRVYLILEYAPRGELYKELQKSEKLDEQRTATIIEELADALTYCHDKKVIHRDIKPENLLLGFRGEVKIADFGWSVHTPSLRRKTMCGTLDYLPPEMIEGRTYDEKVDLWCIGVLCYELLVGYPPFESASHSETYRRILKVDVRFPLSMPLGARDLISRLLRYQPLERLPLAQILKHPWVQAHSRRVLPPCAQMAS
ASSAY EXPLANATION: KINOMEscan competition binding
CONDITION LABEL: compound 10.0 µM
Known kinase still bound, per cent of control of a selection of compounds
Answer in %, number only, no unit symbol.

Example compounds with recorded kinase still bound, per cent of control:
SMILES STR	kinase still bound, per cent of control (%)
CN1CCN(c2ccc(C(=O)Nc3ncc4c(n3)N(C)c3ccccc3C(=O)N4C)cc2)CC1	99
COc1cc(N2CCN(C)CC2)ccc1Nc1ncc2c(n1)N(C)c1ccccc1N(C)C2=O	86

# query: kinase still bound, per cent of control of entry `CN1C(=O)c2ccccc2N(C)c2nc(Nc3ccc(N4CCC(O)CC4)cn3)ncc21`
3.7

Cool, now `CN1C(=O)c2ccccc2N(C)c2nc(Nc3ccc(N4CCC(O)CC4)cc3)ncc21`
22

---

Known kinase still bound, per cent of control of a selection of molecules
TESTED SYSTEM: UniProt:Q9HAZ1
Sequence (Q9HAZ1 whole entry, looked up): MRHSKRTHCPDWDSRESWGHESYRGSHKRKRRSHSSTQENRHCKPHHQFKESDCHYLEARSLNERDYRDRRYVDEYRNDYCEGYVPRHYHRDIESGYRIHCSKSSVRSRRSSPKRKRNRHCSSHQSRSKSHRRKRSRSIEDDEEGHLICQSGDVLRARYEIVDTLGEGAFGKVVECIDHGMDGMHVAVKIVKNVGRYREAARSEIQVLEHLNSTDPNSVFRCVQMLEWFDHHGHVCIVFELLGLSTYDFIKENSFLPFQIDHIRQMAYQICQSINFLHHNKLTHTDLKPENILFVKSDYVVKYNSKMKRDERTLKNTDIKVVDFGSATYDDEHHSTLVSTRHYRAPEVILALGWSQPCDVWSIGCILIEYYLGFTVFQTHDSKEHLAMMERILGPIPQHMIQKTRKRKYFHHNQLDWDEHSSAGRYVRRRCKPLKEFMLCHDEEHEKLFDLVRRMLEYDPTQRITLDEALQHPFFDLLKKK
ASSAY EXPLANATION: KINOMEscan competition binding
CONDITION LABEL: compound 10.0 µM
Answer in %, number only, no unit symbol.

SMILES STR	kinase still bound, per cent of control / %
N=C1NC(=O)/C(=C/c2ccc(-c3ccc(Cl)cc3)o2)S1	30
COc1cc(N2CCN(C)CC2)ccc1Nc1ncc2c(n1)Nc1ccccc1NC2=O	94

Attention now turns to another entry.
# query: kinase still bound, per cent of control of entry `N=C1NC(=O)/C(=C/c2ccc(-c3ccccc3O)o2)S1`
5.2

---

TESTED SYSTEM: CSNK1G1 (human)
ASSAY EXPLANATION: KINOMEscan competition binding
CONDITION LABEL: compound 10.0 µM
Known kinase still bound, per cent of control of a selection of molecules
Answer in %, number only, no unit symbol.

SMILES STR	TESTED SYSTEM	kinase still bound, per cent of control, %
Nc1cccc(-c2cc(/C=C3\SC(=O)NC3=O)c[nH]c2=O)c1	CSNK1G1 (human)	19
CS(=O)(=O)Nc1ccc(-c2ncc(/C=C3\SC(=N)NC3=O)s2)cc1	CSNK1G1 (human)	22
CN1C(=O)c2ccccc2N(C)c2nc(NS(=O)(=O)c3ccc(N)cc3)ncc21	CSNK1G1 (human)	100

Attention now turns to another entry.
# query: kinase still bound, per cent of control of entry `COc1cc(N2CCN(C)CC2)ccc1Nc1ncc2c(n1)N(C)c1sccc1C(=O)N2C`
89

---

Known kinase still bound, per cent of control of a selection of molecules
TESTED SYSTEM: CDK16 (human)
ASSAY EXPLANATION: KINOMEscan competition binding
CONDITION LABEL: compound 10.0 µM
Answer in %, number only, no unit symbol.

Example molecules with recorded kinase still bound, per cent of control:
MOLECULE	TESTED SYSTEM	REPORTED ENDPOINT	RESULT VALUE
O=C1NC(=O)/C(=C/c2c[nH]c(=O)c(-c3ccc(N4CCNCC4)nc3)c2)S1	CDK16 (human)	kinase still bound, per cent of control	70
CN1CCN(c2ccc(C(=O)Nc3ncc4c(n3)N(C)c3ccccc3C(=O)N4C)cc2)CC1	CDK16 (human)	kinase still bound, per cent of control	100
N=C1NC(=O)/C(=C/c2ccc(-c3ccc(F)cc3)o2)S1	CDK16 (human)	kinase still bound, per cent of control	9.4
N=C1NC(=O)/C(=C/c2ccc(-c3ccccc3O)o2)S1	CDK16 (human)	kinase still bound, per cent of control	0.15
N=C1NC(=O)/C(=C/c2cccc(-c3ccc(S(N)(=O)=O)cc3)c2)S1	CDK16 (human)	kinase still bound, per cent of control	32

I'm curious: which kinase still bound, per cent of control was measured for `CS(=O)(=O)Nc1ccc(-c2ccc(/C=C3\SC(=N)NC3=O)o2)cc1` tested on CDK16 (human)?
0.3

Cool, now `CS(=O)(=O)Nc1ccc(-c2cccc(/C=C3\SC(=N)NC3=O)n2)cc1`
10

Cool, now `NS(=O)(=O)c1ccc(-c2ccc(/C=C3\SC(=S)N(CC(=O)O)C3=O)o2)cc1`
0.35

Cool, now `CN(C)C1=NC(=O)/C(=C/c2ccc(-c3ccc(S(N)(=O)=O)cc3)o2)S1`
0.45

Cool, now `N=C1NC(=O)/C(=C/c2ccc(-c3ccc(F)cc3O)o2)S1`
0.1

Cool, now `COc1cc(N2CCC(O)CC2)ccc1Nc1ncc2c(n1)N1CCc3cccc(c31)C(=O)N2C`
94

Cool, now `N=C1NC(=O)/C(=C/c2ccc(-c3ccc4c(C(=O)Nc5ccc(N6CCNCC6)cc5)cccc4c3)o2)S1`
24

Cool, now `NS(=O)(=O)c1ccc(-c2ccc(/C=C3\SC(=O)NC3=O)o2)cc1`
19

Cool, now `O=C1NC(=S)S/C1=C\c1ccc(-c2cccc3ccccc23)o1`
1.4

Cool, now `N=C1NC(=O)/C(=C/c2ccc(-c3ccc(S(N)(=O)=O)cc3)o2)S1`
1.2

Cool, now `COc1cc(N2CCN(C)CC2)ccc1Nc1ncc2c(n1)Nc1ccccc1NC2=O`
94

---

TESTED SYSTEM: HCK (human)
ASSAY EXPLANATION: KINOMEscan competition binding
CONDITION LABEL: compound 10.0 µM
Known kinase still bound, per cent of control of a selection of compounds
Answer in %, number only, no unit symbol.

SMILES STR	kinase still bound, per cent of control (%)
COc1cc(N2CCN(C)CC2)ccc1Nc1ncc2c(n1)Nc1ccccc1NC2=O	63
COc1cc(N2CCN(C)CC2)ccc1Nc1ncc2c(n1)N(C)c1sccc1C(=O)N2C	100
CN1C(=O)c2ccccc2N(C)c2nc(Nc3ccc(N4CCC(O)CC4)cc3)ncc21	35
CN1CCN(c2ccc(C(=O)Nc3ncc4c(n3)N(C)c3ccccc3C(=O)N4C)cc2)CC1	100
COc1cc(N2CCC(O)CC2)ccc1Nc1ncc2c(n1)N1CCc3cccc(c31)C(=O)N2C	100
COc1cc(N2CCN(C)CC2)ccc1Nc1ncc2c(n1)N(C)c1ccccc1N(C)C2=O	96
O=C1NC(=O)/C(=C/c2c[nH]c(=O)c(-c3ccc(N4CCNCC4)nc3)c2)S1	100

# query: kinase still bound, per cent of control of entry `CN1C(=O)c2ccccc2N(C)c2nc(NS(=O)(=O)c3ccc(N)cc3)ncc21`
100

---

Known kinase still bound, per cent of control of a selection of compounds
TESTED SYSTEM: CDK14 (human)
ASSAY EXPLANATION: KINOMEscan competition binding
CONDITION LABEL: compound 10.0 µM
Answer in %, number only, no unit symbol.

Example compounds with recorded kinase still bound, per cent of control:
SMILES STR	RESULT VALUE
N=C1NC(=O)/C(=C/c2ccc(-c3ccc(F)cc3O)o2)S1	19
O=C1NC(=O)/C(=C/c2c[nH]c(=O)c(-c3ccc(N4CCNCC4)nc3)c2)S1	73
COc1cc(N2CCN(C)CC2)ccc1Nc1ncc2c(n1)N(C)c1sccc1C(=O)N2C	96
N=C1NC(=O)/C(=C/c2ccc(-c3ccc(C(N)=O)cc3O)o2)S1	18

# query: kinase still bound, per cent of control of entry `COc1cc(N2CCC(O)CC2)ccc1Nc1ncc2c(n1)N1CCc3cccc(c31)C(=O)N2C`
91

Cool, now `CN1CCN(c2ccc(C(=O)Nc3ncc4c(n3)N(C)c3ccccc3C(=O)N4C)cc2)CC1`
100

src = the kinase profiling compilation of Christmann-Franck et al. (2016)
